# Species on record: Rattus norvegicus
# Run Description: Open TG-GATES - Regimen: Single
# Type: toxicity, organism-based, Sprague-Dawley
# Parameters: regimen Single, gender Male, age 6 weeks
# Particulars: in vivo, po, 300 mg/kg, 24 h, tissue Blood, route gavage, dose level Middle
Measurement Name: Mono (%)
Dear colleague, please return just the value in %, with no unit written.

Data request: For COc1ccc2[nH]c([S+]([O-])Cc3ncc(C)c(OC)c3C)nc2c1 (centres undefined) , what is its reported Mono?
Data returned: 3

Data request: For "NC(N)=Nc1nc(CSCCC(N)=NS(N)(=O)=O)cs1" , what is its reported Mono?
Data returned: 3.8

Data request: For "COC1=CC(=O)C[C@@H](C)[C@]12Oc1c(Cl)c(OC)cc(OC)c1C2=O" , what is its reported Mono?
Data returned: 2.4

Data request: For CCOC(=O)CCC(=O)O[C@H]1[C@H](O[C@@H]2[C@@H](C)[C@H](O[C@H]3C[C@@](C)(OC)[C@@H](O)[C@H](C)O3)[C@@H](C)C(=O)O[C@H](CC)[C@@](C)(O)[C@H](O)[C@@H](C)C(=O)[C@H](C)C[C@@]2(C)O)O[C@H](C)C[C@@H]1N(C)C [ERYTHROMYCIN ETHYLSUCCINATE] , what is its reported Mono?
Data returned: 2.4

###

# Species on record: Rattus norvegicus
# Run Description: Open TG-GATES - Regimen: Single
# Assay type: toxicity, organism-based, Sprague-Dawley
# Parameters: regimen Single, gender Male, age 6 weeks
# Particulars: in vivo, po, 100 mg/kg, 3 h, tissue Blood, route gavage, dose level Low
Measured MCV, listed per entry.
Dear colleague, please return just the value in fL, with no unit written.

Please review the following examples before continuing.
>>> readout_value("NC(N)=Nc1nc(CSCCC(N)=NS(N)(=O)=O)cs1")
64.1
>>> readout_value("CCOC(=O)CCC(=O)O[C@H]1[C@H](O[C@@H]2[C@@H](C)[C@H](O[C@H]3C[C@@](C)(OC)[C@@H](O)[C@H](C)O3)[C@@H](C)C(=O)O[C@H](CC)[C@@](C)(O)[C@H](O)[C@@H](C)C(=O)[C@H](C)C[C@@]2(C)O)O[C@H](C)C[C@@H]1N(C)C [ERYTHROMYCIN ETHYLSUCCINATE]")
64.4
>>> readout_value("COc1ccc2[nH]c([S+]([O-])Cc3ncc(C)c(OC)c3C)nc2c1 (centres undefined)")
62.2

Data request: For "COC1=CC(=O)C[C@@H](C)[C@]12Oc1c(Cl)c(OC)cc(OC)c1C2=O" , what is its reported MCV?
Data returned: 63.2

###

# Species on record: Rattus norvegicus
# Run Description: Open TG-GATES - Regimen: Single
# Type: toxicity, organism-based, Sprague-Dawley
# Design: regimen Single, gender Male, age 6 weeks
# Particulars: in vivo, po, 0 mg/kg, 6 h, tissue Blood, route gavage, dose level Control
Measurement Name: Ht (%)
Dear colleague, please return just the value in %, with no unit written.

Please review the following examples before continuing.
>>> readout_value("Cc1ccc(C)c(OCCCC(C)(C)C(=O)O)c1")
40.6
>>> readout_value("CCCNC(=O)NS(=O)(=O)c1ccc(Cl)cc1 [CHLORPROPAMIDE]")
40.5
>>> readout_value("C[C@@H]1C[C@H]2[C@@H]3CCC4=CC(=O)C=C[C@]4(C)[C@@]3(F)[C@@H](O)C[C@]2(C)[C@@]1(O)C(=O)CO")
40.4
>>> readout_value("CN(C)CCN(Cc1cccs1)c1ccccn1")
38.6
>>> readout_value("NNC(=O)c1ccncc1")
37.6

Data request: For "CC1=C(/C=C/C(C)=C/C=C/C(C)=C/CO)C(C)(C)CCC1" , what is its reported Ht?
Data returned: 38.8

Data request: For "CN(C)CCCN1c2ccccc2CCc2ccc(Cl)cc21" , what is its reported Ht?
Data returned: 42.3

Data request: For COc1ccc2[nH]c([S+]([O-])Cc3ncc(C)c(OC)c3C)nc2c1 (stereo not drawn) , what is its reported Ht?
Data returned: 39.7

Data request: For "O=C(CCCN1CCC(O)(c2ccc(Cl)cc2)CC1)c1ccc(F)cc1" , what is its reported Ht?
Data returned: 40.6

Data request: For "COC1=CC(=O)C[C@@H](C)[C@]12Oc1c(Cl)c(OC)cc(OC)c1C2=O" , what is its reported Ht?
Data returned: 41.1

Data request: For "CN(C)CCCN1c2ccccc2CCc2ccccc21" , what is its reported Ht?
Data returned: 39.2
